- target_or_system: H^+,K^+ -ATPase (Oryctolagus cuniculus, UniProt P27112)
- Construct: The rabbit gastric glands were homogenized and the microsomal fractions were prepared; from tissue; host or cells: rabbit gastric glands, light membrane fraction between 30% and 40% sucrose
- Sequence (P27112 whole entry): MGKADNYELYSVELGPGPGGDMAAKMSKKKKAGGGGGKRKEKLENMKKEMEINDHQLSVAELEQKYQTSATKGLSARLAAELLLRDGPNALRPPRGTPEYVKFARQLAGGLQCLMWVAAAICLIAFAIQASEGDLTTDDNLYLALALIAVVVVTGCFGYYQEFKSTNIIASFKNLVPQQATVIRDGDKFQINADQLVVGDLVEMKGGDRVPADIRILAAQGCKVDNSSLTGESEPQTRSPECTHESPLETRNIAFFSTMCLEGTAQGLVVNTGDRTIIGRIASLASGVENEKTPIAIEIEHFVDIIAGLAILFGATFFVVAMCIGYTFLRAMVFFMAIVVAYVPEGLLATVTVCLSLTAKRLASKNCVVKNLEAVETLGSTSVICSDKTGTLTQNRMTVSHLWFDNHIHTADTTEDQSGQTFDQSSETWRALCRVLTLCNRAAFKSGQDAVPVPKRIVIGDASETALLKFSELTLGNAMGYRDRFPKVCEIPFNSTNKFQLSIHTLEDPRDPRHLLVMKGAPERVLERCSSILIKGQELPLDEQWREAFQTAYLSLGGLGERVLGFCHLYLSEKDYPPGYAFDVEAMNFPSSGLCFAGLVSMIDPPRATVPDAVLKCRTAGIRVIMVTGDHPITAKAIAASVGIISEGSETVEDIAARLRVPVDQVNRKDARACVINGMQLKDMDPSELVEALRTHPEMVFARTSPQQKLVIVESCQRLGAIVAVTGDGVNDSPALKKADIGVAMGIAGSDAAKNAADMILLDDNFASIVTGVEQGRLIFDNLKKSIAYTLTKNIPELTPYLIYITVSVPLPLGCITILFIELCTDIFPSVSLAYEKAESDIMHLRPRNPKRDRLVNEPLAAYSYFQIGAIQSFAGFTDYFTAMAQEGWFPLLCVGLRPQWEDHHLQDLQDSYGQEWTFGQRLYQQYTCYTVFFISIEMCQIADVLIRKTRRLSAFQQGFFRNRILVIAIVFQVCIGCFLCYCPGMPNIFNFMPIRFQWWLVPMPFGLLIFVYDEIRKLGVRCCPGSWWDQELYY
- Sequence (P18597 whole entry partner): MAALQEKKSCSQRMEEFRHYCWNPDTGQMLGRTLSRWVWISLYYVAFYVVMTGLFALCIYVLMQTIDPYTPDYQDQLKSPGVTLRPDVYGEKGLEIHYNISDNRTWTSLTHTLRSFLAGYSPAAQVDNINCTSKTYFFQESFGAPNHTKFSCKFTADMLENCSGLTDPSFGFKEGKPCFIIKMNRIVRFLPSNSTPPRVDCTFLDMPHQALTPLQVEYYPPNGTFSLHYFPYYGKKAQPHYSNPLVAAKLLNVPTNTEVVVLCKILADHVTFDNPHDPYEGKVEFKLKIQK
- run_description: Inhibitory effects on the enzymatic activity of H^+,K^+ -ATPase
- Format: biochemical, rabbit
measurement_kind: pIC50
Convention used: pIC50 is expressed as -log10 of the molar concentration.

Suppose we examine the compound COc1ccc2nc([S+]([O-])Cc3ncc(C)c(OC)c3C)[nH]c2c1 (stereo not shown) [Omeprazole, reference compound] ; what pIC50 value has been reported?
5.03

###

- Tested on: rabbit gastric glands
- run_description: Inhibitory effects on aminopyrine uptake into gastric glands
- Type: cell-based
- condition_notes: Oryctolagus cuniculus, 0.5 h; 10^-4 M test compound; 37° C., 30 minutes; untreated control = 100%
Note: every record was labeled by where its activity at 100 µM sits among bucket 1 (below 10%), bucket 2 (10% to below 20%), bucket 3 (20% or more)

Consider the worked cases shown below.
INSERT INTO results (compound, target_or_system, assigned_label) VALUES
  ('Cc1cnc(CSc2cc3cc(C(F)(F)F)ccc3[nH]2)cc1N1CCCCC1', 'rabbit gastric glands', 'bucket 2'),
  ('CCOC(=O)c1ccnc(CSc2c[nH]c3ccccc23)c1', 'rabbit gastric glands', 'bucket 3'),
  ('Cc1ccc2[nH]c(SCc3cc(N4CCCCC4)c(C)cn3)cc2c1', 'rabbit gastric glands', 'bucket 2'),
  ('Cc1cnc(CSc2cc3ccccc3[nH]2)cc1N1CCOCC1', 'rabbit gastric glands', 'bucket 1'),
  ('Clc1ccnc(CSc2c[nH]c3ccccc23)c1 [Example 37, 3-[(4-chloro-2-pyridyl)methylthio]indole]', 'rabbit gastric glands', 'bucket 3'),
  ('Cc1cnc(C[S+]([O-])c2cc3ccccc3[nH]2)cc1N1CCCCC1 (stereo not shown)', 'rabbit gastric glands', 'bucket 3'),
  ('Oc1ccnc(CSc2c[nH]c3ccccc23)c1', 'rabbit gastric glands', 'bucket 3'),
  ('Cc1cnc(CSc2cc3cc(F)ccc3[nH]2)cc1N1CCCCC1', 'rabbit gastric glands', 'bucket 2'),
  ('CCOC(=O)c1ccc2[nH]c(SCc3cc(N4CCCCC4)c(C)cn3)cc2c1', 'rabbit gastric glands', 'bucket 2'),
  ('COc1ccc2nc([S+]([O-])Cc3ncc(C)c(OC)c3C)[nH]c2c1 (stereo not shown) [Omeprazole, reference compound]', 'rabbit gastric glands', 'bucket 2');

Continue with the next compound.
Hi there! Could you help me figure out the category for Cc1cnc(CSc2cc3ccccc3[nH]2)cc1N1CCCCC1 please?
bucket 1

Entry source: patent US4743609A
